- Target desc: T1, rhEphA5 antigen (Homo sapiens, UniProt P54756)
- T1 construct: purchased R and D systems 3036-A5
- Method: ka (1/Ms)
Experimental endpoint: ka (M⁻¹ s⁻¹)

INSERT INTO assay_data (molecule, number) VALUES
  ('VH5/VK5: humanized anti-EphA5 antibody, VH SEQ ID NO:6, VL SEQ ID NO:13 (antibody, V domains shown) VH: EVQLVESGGGLVQPGGSLKLSCAASGFTFSTFGIHWVRQAPGKGLEWVAYISGASTTIYYADSVKGRFTISRDNSKNTLYLQMNSLRAEDTAVYYCARYGTSFPYGLDYWGQGTLVTVSS VL: DIVMTQSPDSLAVSLGERATINCKSSQSVDYDGDSYMNWYQQKPGKAPKLLIYGASNLESGIPDRFSGSGSGTDFTLTISRLEPEDAAVYYCQQSNEDPFTFGQGTKLEIK', '1.37e-06'),
  ('VH4/VK5: humanized anti-EphA5 antibody, VH SEQ ID NO:5, VL SEQ ID NO:13 (antibody, V domains shown) VH: EVQLVESGGGLVQPGGSLKLSCAASGFTFSTFGIHWVRQAPGKGLEWVAYISGASTTIYYADTVKGRFTISRDNSKNTLYLQMNSLRAEDTAVYYCARYGTSFPYGLDYWGQGTLVTVSS VL: DIVMTQSPDSLAVSLGERATINCKSSQSVDYDGDSYMNWYQQKPGKAPKLLIYGASNLESGIPDRFSGSGSGTDFTLTISRLEPEDAAVYYCQQSNEDPFTFGQGTKLEIK', '1.37e-06');
